Tested on: Escherichia coli TOP10;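 also: peptides expressed intracellularly from a pBAD plasmid library in pooled LB shake-flask culture, induced with 0.3% L-arabinose, DNA abundance read by NGS, three biological replicates, DESeq2 with apeglm shrinkage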
Assay: shrunken log2 fold change of peptide-encoding DNA abundance (4.5 h post-induction vs induction); higher = less antimicrobial activity (less host growth inhibition)
Conditions: time post-induction: 4.5 h; library: site-saturation at positions 5, 18, 19, 20
Class (by shrunken log2 fold change) -- category 1 = under -0.1, category 2 = from -0.1 up to 0.05, category 3 = 0.05 and over

Here are 5 sequences together with their reported answers.
| query_sequence | label_class |
| --- | --- |
| RRIRWRPPRLPRPRPRPCQVPRP | category 2 |
| RRIRGRPPRLPRPRPRPPATPRP | category 3 |
| RRIRSRPPRLPRPRPRPVQHPRP | category 2 |
| RRIRTRPPRLPRPRPRPADQPRP | category 2 |
| RRIRARPPRLPRPRPRPLWWPRP | category 3 |

Query: Would you mind sorting "RRIRSRPPRLPRPRPRPDRSPRP" into the appropriate category?
Reply: category 2

Query: Would you mind sorting "RRIRNRPPRLPRPRPRPLNEPRP" into the appropriate category?
Reply: category 1

All figures here come from the supplement of paper PMC9112550.
